Origin of measurements: patent US4812469A

- System: survival of cerebral tissue during acute hypoxia
- METHOD_SUMMARY: Acute hypobaric hypoxia in mice, survival time of the brain (final respiratory gasp)
- Type: in vivo, mice (male CD1)
- DETAILS: Mus musculus, ip; 100 mg/kg I.P., 30 minutes before hypoxia (160 mbar), mice, vs control batch; read-out: Percentage increase in the survival time
Would you kindly list ILS at 100 mg/kg for each of these compounds?
Dear colleague, please return just the value in %, with no unit written.

Inquiry: Provide only the value of recorded ILS at 100 mg/kg for NC(=O)Cc1cccc2c1OC(=O)C2c1ccccc1 (stereo not drawn) [Example 8]
Reply text: 13

Inquiry: Provide only the value of recorded ILS at 100 mg/kg for Cc1ncc(CSSCc2cnc(C)c(O)c2CO)c(CO)c1O [Pyritinol, pyritinol]
Reply text: 27

Inquiry: Provide only the value of recorded ILS at 100 mg/kg for O=C1Oc2ccc(CC(=O)N3CCN(c4ccc(C(F)(F)F)cn4)CC3)cc2C1c1ccccc1 (stereo not drawn) [Example 3]
Reply text: 57

Inquiry: Provide only the value of recorded ILS at 100 mg/kg for NC(=O)Cc1cc(Cl)cc2c1OC(=O)C2c1ccccc1 (stereo not drawn) [Example 9]
Reply text: 23

Inquiry: Provide only the value of recorded ILS at 100 mg/kg for NC(=O)Cc1ccc2c(c1)C(c1ccccc1)C(=O)O2 (stereo not drawn) [Example 1]
Reply text: 170

Inquiry: Provide only the value of recorded ILS at 100 mg/kg for NC(=O)CN1CCCC1=O [Piracetam, piracetam, reference compound]
Reply text: 11
